Settings: in n-propanol, 308.15 K
readoutType: solubility (mole fraction)
Please give the numeric answer without any surrounding text.

Task: For the compound `CC(C)C[C@H](NC(=O)OCC1c2ccccc2-c2ccccc21)C(=O)O` , what solubility (mole fraction) is on record?
Result: 0.0464

* * *

Settings: in n-butanol, 293.15 K
readoutType: solubility (mole fraction)
Answer with a bare number; do not write a unit.

Task: # query: solubility (mole fraction) of entry `CC(C)C[C@H](NC(=O)OCC1c2ccccc2-c2ccccc21)C(=O)O`
Result: 0.0258

* * *

Conditions: in ethyl acetate, 293.15 K
readoutType: solubility (mole fraction)
Form field (numeric): enter value without unit.

Task: Which value of solubility (mole fraction) has been reported for `CC(C)C[C@H](NC(=O)OCC1c2ccccc2-c2ccccc21)C(=O)O` in the records?
Result: 0.0536
